Target: Bcl-2-like protein 1 (Homo sapiens) (UniProt Q07817)
Sequence (Q07817 whole entry, looked up): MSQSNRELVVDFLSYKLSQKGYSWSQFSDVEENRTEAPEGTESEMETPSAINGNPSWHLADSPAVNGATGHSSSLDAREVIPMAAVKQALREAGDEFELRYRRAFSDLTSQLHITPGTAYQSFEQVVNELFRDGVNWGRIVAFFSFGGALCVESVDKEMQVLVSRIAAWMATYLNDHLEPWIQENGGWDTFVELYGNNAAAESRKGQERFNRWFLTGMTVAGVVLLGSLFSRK
Test: Bcl-XL binding to Bim peptide disruption – biochemical, multiplexed, bead flow cytometry, human Bcl-XL, dose response (AID 1322); also: test concentration not given here
Conditions: Bead-based flow cytometry, MCF
Active and inactive are the calls of the source. No rule for the calls is given here.
MEASURED PROPERTY: inhibition

Reference set (5 entries):
Entry Cc1ccc(/C=C/C(=O)c2ccccc(=O)c2O)cc1C , tested on Bcl-2-like protein 1 (Homo sapiens) (UniProt Q07817), has a reported inhibition of inactive

Entry CCOc1cc(C2Nc3cccc4cccc(c34)N2)ccc1O , tested on Bcl-2-like protein 1 (Homo sapiens) (UniProt Q07817), has a reported inhibition of inactive

Entry CCC(=O)N(CC)C1=C(O)c2ccccc2C(=O)C1=O , tested on Bcl-2-like protein 1 (Homo sapiens) (UniProt Q07817), has a reported inhibition of inactive

Entry CCn1cc(C=C2C(=O)c3ccccc3C2=O)c2ccccc21 , tested on Bcl-2-like protein 1 (Homo sapiens) (UniProt Q07817), has a reported inhibition of inactive

Entry CCc1ccc(NC(=O)CC2NCCNC2=O)cc1 (configuration not stated) , tested on Bcl-2-like protein 1 (Homo sapiens) (UniProt Q07817), has a reported inhibition of inactive

Hi! Can you tell me inhibition for each of these molecules?
1. COc1ccc(N2C(=O)/C(=C/c3cccs3)NC2=S)cc1
2. Fc1ccccc1/C=C1\CCCC2=C1NC(=S)NC2c1ccccc1F (configuration not stated)
3. CCOC(=O)CCCNC(=O)c1cncc(O)c1
4. N#Cc1cc(-c2ccccc2)nn1-c1ccccc1
5. CCn1c(SCC(=O)Nc2ccccc2-c2ccccc2)nnc1-c1ccoc1C
6. O=C(CSc1nnc(-c2ccco2)n1Cc1ccccc1)c1ccccc1

Resp:
1: inactive; 2: inactive; 3: inactive; 4: inactive; 5: inactive; 6: inactive

Entry COc1cccc(-n2nnnc2SCC(=O)Nc2cccc(NC(C)=O)c2)c1 , tested on Bcl-2-like protein 1 (Homo sapiens) (UniProt Q07817), has a reported inhibition of inactive
